# experiment.summary: in vivo
# Parameters: species or system mice
# measurement.context: male, NODSCID 1L2RγKO, mouse, iv, total radioactivity, Muscle uptake
Please go through the items and note down their tissue uptake at 1 h.
One number for each entry, in %ID/g.

These recorded examples may help you get a feel for the data.
{"compound": "COc1ccc(CCCC(=O)NCC(=O)N[C@@H](CCCCNC(=O)CN2CCN(CC(=O)O)CCN(CC(=O)O)CCN(CC(=O)O)CC2)C(=O)NC[C@H]2CC[C@H](C(=O)N[C@@H](Cc3c4ccccc4cc4ccccc34)C(=O)NCCCC[C@H](NC(=O)N[C@@H](COCC(=O)O)C(=O)O)C(=O)O)CC2)cc1 [177Lu-HTK04028, metal not drawn]", "tissue uptake at 1 h [%ID/g]": 1.32}
{"compound": "O=C(O)CCC[C@H](NC(=O)N[C@@H](CCCCNC(=O)[C@H](Cc1c2ccccc2cc2ccccc12)NC(=O)[C@H]1CC[C@H](CNC(=O)CN2CCN(CC(=O)O)CCN(CC(=O)O)CCN(CC(=O)O)CC2)CC1)C(=O)O)C(=O)O [177Lu-HTK03149, metal not drawn]", "tissue uptake at 1 h [%ID/g]": 0.18}
{"compound": "COc1ccc(CCCC(=O)NCC(=O)N[C@@H](CCCCNC(=O)CN2CCN(CC(=O)O)CCN(CC(=O)O)CCN(CC(=O)O)CC2)C(=O)NC[C@H]2CC[C@H](C(=O)N[C@@H](Cc3c4ccccc4cc4ccccc34)C(=O)NCCCC[C@H](NC(=O)N[C@@H](CCCC(=O)O)C(=O)O)C(=O)O)CC2)cc1 [177Lu-HTK03170, metal not drawn]", "tissue uptake at 1 h [%ID/g]": 1.15}
{"compound": "COc1ccc(CCCC(=O)NCC(=O)N[C@@H](CCCCNC(=O)CN2CCN(CC(=O)O)CCN(CC(=O)O)CCN(CC(=O)O)CC2)C(=O)NC[C@H]2CC[C@H](C(=O)N[C@@H](Cc3c4ccccc4cc4ccccc34)C(=O)NCCCC[C@H](NC(=O)N[C@@H](CSCC(=O)O)C(=O)O)C(=O)O)CC2)cc1 [177Lu-HTK04048, metal not drawn]", "tissue uptake at 1 h [%ID/g]": 1.42}

Query compound follows.
Report tissue uptake at 1 h for O=C(O)CCC[C@H](NC(=O)N[C@@H](CCCCNC(=O)[C@H](Cc1c2ccccc2cc2ccccc12)NC(=O)[C@H]1CC[C@H](CNC(=O)[C@H](CCCCNC(=O)CN2CCN(CC(=O)O)CCN(CC(=O)O)CCN(CC(=O)O)CC2)NC(=O)CNC(=O)CCCc2ccc(Cl)cc2)CC1)C(=O)O)C(=O)O [177Lu-HTK03153, metal not drawn]
1.54

* * *

# experiment.summary: in vivo
# Parameters: species or system mice
# measurement.context: male, NODSCID 1L2RγKO, mouse, iv, total radioactivity, Tail uptake
Please go through the items and note down their tissue uptake at 1 h.
Give bare numbers, in %ID/g.

These recorded examples may help you get a feel for the data.
{"compound": "COc1ccc(CCCC(=O)NCC(=O)N[C@@H](CCCCNC(=O)CN2CCN(CC(=O)O)CCN(CC(=O)O)CCN(CC(=O)O)CC2)C(=O)NC[C@H]2CC[C@H](C(=O)N[C@@H](Cc3c4ccccc4cc4ccccc34)C(=O)NCCCC[C@H](NC(=O)N[C@@H](CCCC(=O)O)C(=O)O)C(=O)O)CC2)cc1 [177Lu-HTK03170, metal not drawn]", "tissue uptake at 1 h, %ID/g": 6.11}
{"compound": "O=C(O)CCC[C@H](NC(=O)N[C@@H](CCCCNC(=O)[C@H](Cc1c2ccccc2cc2ccccc12)NC(=O)[C@H]1CC[C@H](CNC(=O)CN2CCN(CC(=O)O)CCN(CC(=O)O)CCN(CC(=O)O)CC2)CC1)C(=O)O)C(=O)O [177Lu-HTK03149, metal not drawn]", "tissue uptake at 1 h, %ID/g": 0.52}
{"compound": "COc1ccc(CCCC(=O)NCC(=O)N[C@@H](CCCCNC(=O)CN2CCN(CC(=O)O)CCN(CC(=O)O)CCN(CC(=O)O)CC2)C(=O)NC[C@H]2CC[C@H](C(=O)N[C@@H](Cc3c4ccccc4cc4ccccc34)C(=O)NCCCC[C@H](NC(=O)N[C@@H](COCC(=O)O)C(=O)O)C(=O)O)CC2)cc1 [177Lu-HTK04028, metal not drawn]", "tissue uptake at 1 h, %ID/g": 4.85}
{"compound": "O=C(O)CCC[C@H](NC(=O)N[C@@H](CCCCNC(=O)[C@H](Cc1c2ccccc2cc2ccccc12)NC(=O)[C@H]1CC[C@H](CNC(=O)[C@H](CCCCNC(=O)CN2CCN(CC(=O)O)CCN(CC(=O)O)CCN(CC(=O)O)CC2)NC(=O)CNC(=O)CCCc2ccc(Cl)cc2)CC1)C(=O)O)C(=O)O [177Lu-HTK03153, metal not drawn]", "tissue uptake at 1 h, %ID/g": 5.38}

Query compound follows.
Report tissue uptake at 1 h for COc1ccc(CCCC(=O)NCC(=O)N[C@@H](CCCCNC(=O)CN2CCN(CC(=O)O)CCN(CC(=O)O)CCN(CC(=O)O)CC2)C(=O)NC[C@H]2CC[C@H](C(=O)N[C@@H](Cc3c4ccccc4cc4ccccc34)C(=O)NCCCC[C@H](NC(=O)N[C@@H](CSCC(=O)O)C(=O)O)C(=O)O)CC2)cc1 [177Lu-HTK04048, metal not drawn]
3.57

* * *

# experiment.summary: in vivo
# measurement.context: male, NODSCID 1L2RγKO, mouse, iv, total radioactivity, Urine uptake
Please go through the items and note down their excreta dose per gram or mL at 1 h.
Give bare numbers, in %ID/g.

{"compound": "O=C(O)C[C@H](NC(=O)N[C@@H](CCCCNC(=O)[C@H](Cc1c2ccccc2cc2ccccc12)NC(=O)[C@H]1CC[C@H](CNC(=O)CN2CCN(CC(=O)O)CCN(CC(=O)O)CCN(CC(=O)O)CC2)CC1)C(=O)O)C(=O)O [68Ga-HTK03161, metal not drawn]", "result": 363}

Report excreta dose per gram or mL at 1 h for O=C(O)CCC[C@H](NC(=O)N[C@@H](CCCCNC(=O)[C@H](Cc1c2ccccc2cc2ccccc12)NC(=O)Cc1cccc(CNC(=O)CN2CCN(CC(=O)O)CCN(CC(=O)O)CCN(CC(=O)O)CC2)c1)C(=O)O)C(=O)O [68Ga-HTK04037, metal not drawn]
396

* * *

# experiment.summary: in vivo
# Set-up: species or system mice
# measurement.context: male, NODSCID 1L2RγKO, mouse, iv, total radioactivity, Adrenal glands uptake
Please go through the items and note down their tissue uptake at 4 h.
Answers are plain numbers, in %ID/g.

{"compound": "COc1ccc(CCCC(=O)NCC(=O)N[C@@H](CCCCNC(=O)CN2CCN(CC(=O)O)CCN(CC(=O)O)CCN(CC(=O)O)CC2)C(=O)NC[C@H]2CC[C@H](C(=O)N[C@@H](Cc3c4ccccc4cc4ccccc34)C(=O)NCCCC[C@H](NC(=O)N[C@@H](COCC(=O)O)C(=O)O)C(=O)O)CC2)cc1 [177Lu-HTK04028, metal not drawn]", "metric": "tissue uptake at 4 h", "result": 2.18}

Query compound follows.
Report tissue uptake at 4 h for O=C(O)CCC[C@H](NC(=O)N[C@@H](CCCCNC(=O)[C@H](Cc1c2ccccc2cc2ccccc12)NC(=O)[C@H]1CC[C@H](CNC(=O)CN2CCN(CC(=O)O)CCN(CC(=O)O)CCN(CC(=O)O)CC2)CC1)C(=O)O)C(=O)O [177Lu-HTK03149, metal not drawn]
0.08

* * *

# experiment.summary: in vivo
# measurement.context: male, NODSCID 1L2RγKO, mouse, iv, total radioactivity, Muscle uptake
metric: tissue uptake at 1 h (%ID/g)
Answers are plain numbers, in %ID/g.

{"compound": "O=C(O)CCC[C@H](NC(=O)N[C@@H](CCCCNC(=O)[C@H](Cc1ccc2ccccc2c1)NC(=O)[C@H]1CC[C@H](CNC(=O)CN2CCN(CC(=O)O)CCN(CC(=O)O)CCN(CC(=O)O)CC2)CC1)C(=O)O)C(=O)O [68Ga-HTK03169, metal not drawn]", "result": 0.08}
{"compound": "O=C(O)COC[C@H](NC(=O)N[C@@H](CCCCNC(=O)[C@H](Cc1c2ccccc2cc2ccccc12)NC(=O)[C@H]1CC[C@H](CNC(=O)CN2CCN(CC(=O)O)CCN(CC(=O)O)CCN(CC(=O)O)CC2)CC1)C(=O)O)C(=O)O [68Ga-HTK03187, metal not drawn]", "result": 0.09}
{"compound": "O=C(O)CN1CCN(CC(=O)O)CCN(CC(=O)NC[C@H]2CC[C@H](C(=O)N[C@@H](Cc3c4ccccc4cc4ccccc34)C(=O)NCCCC[C@H](NC(=O)N[C@@H](C[C@@H](F)C(=O)O)C(=O)O)C(=O)O)CC2)CCN(CC(=O)O)CC1 [68Ga-HTK04033, metal not drawn]", "result": 0.09}

Query compound follows.
Report tissue uptake at 1 h for O=C(O)CC[C@H](NC(=O)N[C@@H](CCCCNC(=O)[C@H](Cc1c2ccccc2cc2ccccc12)NC(=O)[C@H]1CC[C@H](CNC(=O)CN2CCN(CC(=O)O)CCN(CC(=O)O)CCN(CC(=O)O)CC2)CC1)C(=O)O)C(=O)O [68Ga-HTK03041, metal not drawn]
0.75
